condition context: in n-hexane, 298.2 K
experimental endpoint: solubility (mole fraction)
Just the number.

Dear colleague, please send me the reported solubility (mole fraction) for `O=C(c1ccccc1)c1ccc(O)cc1O` when you can.
3.26e-05

---

condition context: in cyclohexane, 298.2 K
experimental endpoint: solubility (mole fraction)
Just the number.

Dear colleague, please send me the reported solubility (mole fraction) for `O=C(c1ccccc1)c1ccc(O)cc1O` when you can.
5.07e-05

---

condition context: in n-pentanol, 298.2 K
experimental endpoint: solubility (mole fraction)
Just the number.

Dear colleague, please send me the reported solubility (mole fraction) for `O=C(c1ccccc1)c1ccc(O)cc1O` when you can.
0.0125

---

condition context: in diisopropyl ether, 298.2 K
experimental endpoint: solubility (mole fraction)
Just the number.

Dear colleague, please send me the reported solubility (mole fraction) for `O=C(c1ccccc1)c1ccc(O)cc1O` when you can.
0.00744
